- Test system: Candida glabrata TIMM1062
- ASSAY TEXT: MIC by agarose plate dilution method
- Format: cell-based
- STUDY CONDITIONS: saburo-dextrose agarose culture, 30° C., 2 days
Numbered stars: 1 amine (or outer) side, 2 acyl side, 3 side chain; on linkers, the order of the positions; unused ones are H or OH. Square brackets hold non-standard residues; d marks the D form. Peptide text beside a SMILES is read from it. * marks the point of attachment. X1 = CC[C@@H](C)[C@@H](O[*:1])C(=O)[*:2]; NMeVal(β-OH) = CN[C@H](C(=O)O)C(C)(C)O; aIle = CC[C@@H](C)[C@H](N)C(=O)O; Cyclohexylmethyl = C1CCC(C*)CC1; Cha = N[C@@H](CC1CCCCC1)C(=O)O; NMeV = CN[C@H](C(=O)O)C(C)C; dNMeS = CN[C@H](CO)C(=O)O; dNMeA = CN[C@H](C)C(=O)O
Quick reference: MIC of the listed items.

COMPOUND	SUBJECT OF TEST	MIC [µg/mL]
CC[C@@H](C)[C@@H]1NC(=O)[C@@H]2CCCN2C(=O)[C@@H](C)N(C)C(=O)[C@H](Cc2ccc(OCC3CCCCC3)cc2)NC(=O)[C@H](C(C)C)N(C)C(=O)[C@@H]([C@H](C)CC)OC(=O)[C@H](C(C)(C)O)N(C)C(=O)[C@H](CC(C)C)NC(=O)[C@H](C(C)C)N(C)C1=O [Compound 12] (cyclo([aIle][NMeV]L[NMeVal(β-OH)][X1][NMeV]Y(Cyclohexylmethyl)[dNMeA]P))	Candida glabrata TIMM1062	0.39
CC[C@@H](C)[C@@H]1NC(=O)[C@@H]2CCCN2C(=O)[C@@H](CO)N(C)C(=O)[C@H](CC2CCCCC2)NC(=O)[C@H](C(C)C)N(C)C(=O)[C@@H]([C@H](C)CC)OC(=O)[C@H](C(C)(C)O)N(C)C(=O)[C@H](CC(C)C)NC(=O)[C@H](C(C)C)N(C)C1=O [Compound 9] (cyclo([aIle][NMeV]L[NMeVal(β-OH)][X1][NMeV][Cha][dNMeS]P))	Candida glabrata TIMM1062	0.78
CC[C@@H](C)[C@@H]1NC(=O)[C@@H]2CCCN2C(=O)[C@@H](C)N(C)C(=O)[C@H](CC2CCCCC2)NC(=O)[C@H](C(C)C)N(C)C(=O)[C@@H]([C@H](C)CC)OC(=O)[C@H](C(C)(C)O)N(C)C(=O)[C@H](CC(C)C)NC(=O)[C@H](C(C)C)N(C)C1=O [Compound 3] (cyclo([aIle][NMeV]L[NMeVal(β-OH)][X1][NMeV][Cha][dNMeA]P))	Candida glabrata TIMM1062	0.10

* * *

Quick reference: MIC of the listed items.
- Test system: Candida glabrata TIMM1062
- ASSAY TEXT: MIC by agarose plate dilution method
- Format: cell-based
- STUDY CONDITIONS: saburo-dextrose agarose culture, 30° C., 2 days
Numbered stars: 1 amine (or outer) side, 2 acyl side, 3 side chain; on linkers, the order of the positions; unused ones are H or OH. Square brackets hold non-standard residues; d marks the D form. Peptide text beside a SMILES is read from it. X1 = CC[C@@H](C)[C@@H](O[*:1])C(=O)[*:2]; NMeVal(β-OH) = CN[C@H](C(=O)O)C(C)(C)O; NMeF = CN[C@@H](Cc1ccccc1)C(=O)O; aIle = CC[C@@H](C)[C@H](N)C(=O)O; Cha = N[C@@H](CC1CCCCC1)C(=O)O; dNMeV = CN[C@@H](C(=O)O)C(C)C; NMeV = CN[C@H](C(=O)O)C(C)C; dNMeA = CN[C@H](C)C(=O)O
VALUE TYPE: MIC

COMPOUND	VALUE TYPE	MEASURED
CC[C@@H](C)[C@@H]1NC(=O)[C@@H]2CCCN2C(=O)[C@@H](C)N(C)C(=O)[C@H](Cc2ccccc2)NC(=O)[C@H](C(C)C)N(C)C(=O)[C@@H]([C@H](C)CC)OC(=O)[C@H](C(C)(C)O)N(C)C(=O)[C@H](CC(C)C)NC(=O)[C@H](C(C)C)N(C)C1=O [Compound 1] (cyclo([aIle][NMeV]L[NMeVal(β-OH)][X1][NMeV]F[dNMeA]P))	MIC	0.20 µg/mL
CC[C@@H](C)[C@@H]1NC(=O)[C@@H]2CCCN2C(=O)[C@@H](C(C)C)N(C)C(=O)[C@H](CC2CCCCC2)NC(=O)[C@H](C(C)C)N(C)C(=O)[C@@H]([C@H](C)CC)OC(=O)[C@H](C(C)(C)O)N(C)C(=O)[C@H](CC(C)C)NC(=O)[C@H](C(C)C)N(C)C1=O [Compound 8] (cyclo([aIle][NMeV]L[NMeVal(β-OH)][X1][NMeV][Cha][dNMeV]P))	MIC	0.78 µg/mL
CC[C@@H](C)[C@@H]1NC(=O)[C@@H]2CCCN2C(=O)[C@H](Cc2ccccc2)N(C)C(=O)[C@H](CC2CCCCC2)NC(=O)[C@H](C(C)C)N(C)C(=O)[C@@H]([C@H](C)CC)OC(=O)[C@H](C(C)(C)O)N(C)C(=O)[C@H](CC(C)C)NC(=O)[C@H](C(C)C)N(C)C1=O [Compound 6] (cyclo([aIle][NMeV]L[NMeVal(β-OH)][X1][NMeV][Cha][NMeF]P))	MIC	1.56 µg/mL
